- System: OVCAR-8
- protocol-notes: NCI tumour cell line growth inhibition, 48 h
Calls of active or inactive are those of the source. Cut-off read from the data, not from the text of the source: active = GI50 up to about 1.1 µM and inactive = higher.
Outcome codes: active, inactive

| compound | class |
| --- | --- |
| CCOC(=O)Cc1nnc2n(-c3ccccc3)c(=O)c3ccccc3n12 | inactive |
| COC(=O)/C=C1\CCC2[C@@H](C(=O)CC3[C@]2(C)CCC[C@@]3(C)C(=O)OC)C1C (stereo not given in full) | inactive |
| C/C=C/COc1cc(NC(=S)c2ccoc2C)ccc1OC | inactive |
| CN(C)CC1CCC(=C2CCCC2)C1=O (stereo not given) | inactive |
| CC(C)(CNC(=O)/C(Cl)=C(/Cl)C(=O)O)CNC(=O)/C(Cl)=C(/Cl)C(=O)O | inactive |
| O=c1cccccc1NCCCCCCNc1cccccc1=O | inactive |
| CO/N=C(\C(=O)O/C(=N/C1CCCCC1)NC1CCCCC1)c1csc(NC(c2ccccc2)(c2ccccc2)c2ccccc2)n1 | inactive |
| CC(C)(C)OC(=O)NCCc1ccc(N)cc1 | inactive |
| C/N=c1\ss/c(=N\C(=S)N(C)C)n1-c1ccccc1 | inactive |
| CP(=O)(CCSc1ccccc1)c1ccccc1 (stereo not given) | inactive |
| C=CCCCCCCCCCOC1C=CC(O)C(CO)O1 (stereo not given) | inactive |
| O=[N+]([O-])c1ccc(-c2ccc(-c3csc(Nc4ccccc4)n3)o2)cc1 | inactive |
| C/C1=C/C[C@@H](/C(C)=C/c2csc(C)n2)OC(=O)C[C@H](O)C(C)(C)C(=O)[C@H](C)[C@@H](O)[C@@H](C)CCC1 [EPOTHILONE D] | active |
| Cc1nc2ccccc2n1Cc1ccc(NC(=S)Nc2ccccc2)cc1 | inactive |
| CCCCCC(=O)c1ccc2[nH]c3c(C)cc([N+](=O)[O-])c(C)c3c2c1 | inactive |
| NC(=S)N/N=C\c1ccc(OCc2cccc(COc3ccc(/C=N/NC(N)=S)cc3)n2)cc1 | inactive |
| O=c1cc2ccccc2nn1Cc1ccccc1Cl | inactive |
| CC(=O)OCC(=O)[C@@]1(O)CC[C@H]2[C@@H]3CCC4=CC(=O)[C@H](C)C[C@]4(C)[C@H]3[C@@H](O)C[C@@]21C | inactive |
| CC12CCC(C(=O)N3CC=CCC3)(OC1=O)C2(C)C (stereo not given) | inactive |
| CC(N)(/C=C/c1ccccc1)C(=O)O (stereo not given) | inactive |
| CC(C)OC(=O)c1cc(NC(=O)C(C)(C)C)c(F)cc1Cl | inactive |
| CCOC(=O)c1c(-c2ccccc2)oc(-c2ccccc2)c1C(=O)OCC | inactive |
| CNc1ncnc2c1nnn2C | inactive |
| CC1=C(C(=O)NCCc2ccccc2)CC(C(=O)NCCc2ccccc2)=C(C)N1 | inactive |
| O=C1[C@@H]2C(c3ccccc3[N+](=O)[O-])=[N+](c3ccccc3)O[C@@H]2C(=O)N1c1ccc(Cc2ccc(N3C(=O)[C@H]4C(c5ccccc5[N+](=O)[O-])=[N+](c5ccccc5)O[C@H]4C3=O)cc2)cc1 | inactive |
| O=C1c2cccnc2C(=O)c2c1nc1ccccc1c2-c1ccc2c3c(nc4ccccc42)C(=O)c2cccnc2-c13 | active |
| NC(=S)/N=C(/c1nc2ccc(Cl)cc2nc1O)C(O)c1ccccc1Cl (stereo not given) | inactive |
| CC(=O)O[C@H]1C(=O)[C@@]2(C)[C@H]([C@H](OC(=O)c3ccccc3)[C@]3(O)C[C@H](OC(=O)[C@H](O)[C@@H](NC(=O)c4ccoc4)c4ccccc4)C(C)=C1C3(C)C)[C@]1(OC(C)=O)CO[C@@H]1C[C@@H]2O | active |
| CC(C)Cc1ccc(C(C)C(=O)N2CCN(/C=C/c3ccccc3)CC2)cc1 (stereo not given) | inactive |
| CN(C(=O)C1CCCCCC1=O)c1ccccc1Cl (stereo not given) | inactive |
| CC(=O)OC1[C@H]2c3cc4c(cc3CN3CCC(C[C@@H]1OC(C)=O)C23)OCO4 (stereo not given in full) | inactive |
| O=[N+]([O-])c1ccc(Cc2nc3ccccc3s2)cc1 | inactive |
| O=S(=O)(c1ccccc1)N1CCN(S(=O)(=O)c2ccccc2)c2ccccc21 | inactive |
| CC1(C)OC(=O)C(C#N)=C1/C=C/c1coc2ccc(Cl)cc2c1=O | inactive |
| COc1ccc(CN2C[C@H]3[C@@H](CC(=O)O[C@H]3C)CC2=O)cc1 | inactive |
| CC(C)(O)/C1=C/C=C/CCCCCCCCCC1 | inactive |
| CSc1nc(NC(C)C)c2c(n1)Sc1nc3ccccc3n1C2O (stereo not given) | inactive |
| O=C(O)c1c2c(cc3c1CC(Cc1ccccc1)C3=O)CCC2 (stereo not given) | inactive |
| COC12C=CC(CC1)C(C)(C)C2=O (stereo not given) | inactive |
| COc1cc2c(cc1O)-c1c(cnn1-c1ccc([N+](=O)[O-])cc1)CCC2 | inactive |
